The measurements presented in this section are drawn from the supplement of paper PMC12783771.

B1: library; numbered along this chain (parent)
chain: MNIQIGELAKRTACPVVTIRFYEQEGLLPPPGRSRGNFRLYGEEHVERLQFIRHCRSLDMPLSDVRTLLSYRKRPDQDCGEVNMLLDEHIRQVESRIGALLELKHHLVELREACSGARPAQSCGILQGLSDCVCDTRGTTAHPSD

- Variants of: B1
- PROTOCOL_NOTES: sfGFP reporter fluorescence (15 h) (µM FITC); higher = higher leak
- CONDITION_NOTES: library round: Round 1; ligand: none
Values of sfGFP reporter fluorescence greater than or equal to 0.08 map to t; values below map to f.

P61L K104V	f
P61N R96A	f
D131A D135A	f
E109D D135R	f
K104V V108R	t
D64A K104C	t
P61N D64K D135A	t
M60L D64K D135S	t
R91A K104V	f
V16C V46C	f
N83T E112H	f
P61N R111L	f
L107C G128I P143A	t
E109L G128H P143L	f
M60L P61L	f
P61N D64K V108H	t
P61N E94A	f
D64G N83S D135A	f
D131S C134V	f
L107C D131A	t
N83T L107C C114R G128M	f
P61N L62I	f
K104R C134I	f
P61L D64K	f
K104R D135A	f
N83T L107C D135A P143T	t
R111A D131N	f
K10A V46T C134T	f
N83T I97N	f
D64I R111L	t
N83T L107Y	f
M60L D64K R111L	t
D131H D135K	f
